Attribution: ChEMBL document CHEMBL4190350

Tested on: Bacillus cereus
Assay: Antimicrobial activity against Bacillus cereus incubated for 24 hrs by disc diffusion assay; also: test concentration or dose not given here
Assay type: functional
Threshold rule: diameter of the inhibition zone (DIZ) greater than or equal to 10 mm is 1.0; below that, 0.0.

>>> print(df.to_string())
                                   molecule      system_name  class
0   CC1=NN=C(C)C1=NNc1sc2c(c1C(=O)NN)CCCCC2  Bacillus cereus    0.0
1     NNC(=O)c1c(NN=C2C(=O)NNC2=O)sc2c1CCC2  Bacillus cereus    0.0
2      CCOC(=O)c1c(NN=C(C#N)C#N)sc2c1CCCCC2  Bacillus cereus    1.0
3  CCOC(=O)C1(C(C)=O)N=Nc2sc3c(c2C1=O)CCCCC3 (configuration not stated)  Bacillus cereus    0.0
4  CCOC(=O)c1c(N/N=C2\C(=O)NN=C2C)sc2c1CCCCC2  Bacillus cereus    0.0
5  NNC(=O)c1c(N/N=C2/C(=O)NN=C2N)sc2c1CCCCC2  Bacillus cereus    0.0

Reported diameter of the inhibition zone (DIZ) at or above 10 mm? CCOC(=O)C(=NNc1sc2c(c1C(=O)OCC)CCC2)C(=O)OCC 0.0

Check if diameter of the inhibition zone (DIZ) >= 10 mm (inclusive). Item: CCOC(=O)c1c(N/N=C(\C(C)=O)C(=O)c2ccccc2)sc2c1CCCCC2 0.0

Does diameter of the inhibition zone (DIZ) meet or surpass 10 mm for CC1=NNC(=O)/C1=N\Nc1sc2c(c1C(=O)NN)CCCCC2 ? 0.0

# check: diameter of the inhibition zone (DIZ) of CCOC(=O)c1c(N/N=C(\C(C)=O)C(=O)c2ccccc2)sc2c1CCC2 is greater than or equal to 10 mm 1.0

Does the reported diameter of the inhibition zone (DIZ) for N#Cc1c(O)c2c3c(sc2[nH]c1=O)CCCCC3 fall at or above the 10 mm mark? 0.0

Determine whether measured diameter of the inhibition zone (DIZ) meets or exceeds 10 mm for CC1(C)S[C@@H]2[C@H](NC(=O)[C@H](N)c3ccccc3)C(=O)N2[C@H]1C(=O)O 1.0

====

Tested on: Candida albicans
Test: Antimicrobial activity against Candida albicans incubated for 48 hrs by serial dilution method
Format: functional
MEASURE: log10 of MIC (log10 of the value in µM)
Lab note - MIC converted to log10 from values in µM.

Worked cases, log10 of MIC given:
>>> print(df.to_string())
                               query_smiles       system_name       measure  value_observed
0  CCOC(=O)c1c(NN=C(C(C)=O)C(C)=O)sc2c1CCC2  Candida albicans  log10 of MIC            2.69
1        OC(Cn1cncn1)(Cn1cncn1)c1ccc(F)cc1F  Candida albicans  log10 of MIC            3.61
2  CCOC(=O)c1c(NN=C(C(C)=O)C(C)=O)sc2c1CCCCC2  Candida albicans  log10 of MIC            2.35
3   CC(=O)C1(C(C)=O)N=Nc2sc3c(c2C1=O)CCCCC3  Candida albicans  log10 of MIC            2.71

Next compound, please.
Please give the measured log10 of MIC for this compound: NNC(=O)c1c(NN=C2C(N)=NN=C2N)sc2c1CCCCC2 2.67
